# credit: paper PMC10321483

# measurement-target: BlaC (Mycobacterium tuberculosis)
# Construct: made in house; host or cells: E. coli
# Sequence (P9WKD3 35-307): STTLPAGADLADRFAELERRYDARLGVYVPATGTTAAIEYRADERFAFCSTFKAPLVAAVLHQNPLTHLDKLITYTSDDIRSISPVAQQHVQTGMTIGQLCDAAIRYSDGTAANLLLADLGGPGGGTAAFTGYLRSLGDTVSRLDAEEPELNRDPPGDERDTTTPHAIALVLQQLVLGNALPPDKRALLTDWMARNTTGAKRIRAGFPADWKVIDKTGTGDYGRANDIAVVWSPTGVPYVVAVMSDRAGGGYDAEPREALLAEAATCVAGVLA
# test-details: BlaC fluorogenic inhibition assay with FC5 (dose-response)
# Assay type: biochemical
# measurement-conditions: Table S3 tool compounds; 10 min incubation; 2.5 nM BlaC, 2.5 µM FC5; n=4; read-out: pIC50 BlaC (mean ± SD) (converted)
// assign fulfilled if IC50 falls strictly below 2000 nM, else not fulfilled (ties count as not fulfilled)

- compound: "CO/N=C(\\C(=O)N[C@@H]1C(=O)N2C(C(=O)O)=C(CSC(=O)c3ccco3)CS[C@H]12)c1csc(N)n1 [Ceftiofur, reference compound]"
  measurement-target: "BlaC (Mycobacterium tuberculosis)"
  label-class: "not fulfilled"
- compound: "C[C@@H](O)[C@H]1C(=O)N2C(C(=O)O)=C(S[C@@H]3CN[C@H](C(=O)Nc4cccc(C(=O)O)c4)C3)[C@H](C)[C@H]12 [Ertapenem, reference compound]"
  measurement-target: "BlaC (Mycobacterium tuberculosis)"
  label-class: "fulfilled"
- compound: "CC1(C)S[C@@H]2[C@H](NC(=O)[C@H](C(=O)O)c3ccsc3)C(=O)N2[C@H]1C(=O)O [Ticarcillin, reference compound]"
  measurement-target: "BlaC (Mycobacterium tuberculosis)"
  label-class: "not fulfilled"
- compound: "O=C(NNC(=O)[C@@H]1CC[C@@H]2CN1C(=O)N2OS(=O)(=O)O)[C@@H]1CCCNC1 [Zidebactam, reference compound]"
  measurement-target: "BlaC (Mycobacterium tuberculosis)"
  label-class: "not fulfilled"

Input: Does this compound meet the criterion IC50 < 2000 nM? C[C@@H](O)[C@H]1C(=O)N2C(C(=O)O)=C(S[C@@H]3CN[C@H](C(=O)N(C)C)C3)[C@H](C)[C@H]12 [Meropenem, reference compound]
Output: fulfilled

Input: Does this compound meet the criterion IC50 < 2000 nM? C[C@@H](O)[C@H]1C(=O)N2C(C(=O)[O-])=C(SC3Cn4cnc[n+]4C3)[C@H](C)[C@H]12 (some centres unmarked) [Biapenem, reference compound]
Output: not fulfilled
